test: in vitro; details: human, hela cells, % viability
Task for the reader: assign each of the following compounds its reported viability at 28.5 h, 10 µM.
Express it in %; write the number only.

**Query** Answer with the recorded viability at 28.5 h, 10 µM of O=C(NCC1CCNCC1)c1ccncc1 [CBK267637C] only.
**Result** 95

**Query** Give the measured viability at 28.5 h, 10 µM for CC(C)c1nccn1CC(=O)N(C)C(C)c1ccc(F)c(F)c1 (stereo not shown)
**Result** 94.5

**Query** Give viability at 28.5 h, 10 µM for `COC(=O)CCSc1nc(C)nc2c1c(=O)n(C)c(=O)n2CC(C)C`
**Result** 82.7

**Query** Write down viability at 28.5 h, 10 µM measured for item `Oc1cccc(-c2cncc(NCCCN3CCOCC3)n2)c1`
**Result** 89.1

**Query** Respond only with viability at 28.5 h, 10 µM recorded for CSCCC(C(=O)O)N1C(=O)c2ccc(C(=O)O)cc2C1=O (stereo not shown)
**Result** 110

**Query** Specify reported viability at 28.5 h, 10 µM for the compound shown: `CCOc1ccc(S(=O)(=O)Nc2cnccn2)cc1`
**Result** 121

**Query** Provide measured viability at 28.5 h, 10 µM value, entry: `CCN(CCO)c1ccc(Nc2nc(-c3cccc4ccccc34)cn3ccnc23)cc1`
**Result** 87.9

**Query** Please report viability at 28.5 h, 10 µM for the following compound: `COC(=O)c1c(NC(=O)c2ccccc2)csc1C`
**Result** 90.3

**Query** Answer with the recorded viability at 28.5 h, 10 µM of `COc1ccc(-c2n[nH]cc2/C=N/NC(=O)c2cc(Br)ccc2O)c(OC)c1` only.
**Result** 85.9

**Query** Supply reported viability at 28.5 h, 10 µM belonging to this compound: `Cc1cccc(NC(=O)[C@@H](NC(=O)c2ccccc2F)C(C)C)c1C`
**Result** 85.4

* * *

Assign viability at 28.5 h, 10 µM to each entry below.
assay: in vitro; conditions: human, hela cells, % viability
Give your result in % as a bare value.

**Query** Output viability at 28.5 h, 10 µM of `COC(=O)c1ccc(F)c(NC(=O)C2CCCC2)c1`
**Result** 85.5

**Query** Specify measured viability at 28.5 h, 10 µM for `Cc1ccc2c(CSc3nc(N)cc(N)n3)cc(=O)oc2c1C` .
**Result** 87.7

**Query** Name the recorded viability at 28.5 h, 10 µM of the item `COc1ccc2c(c1)CCN=C2C[C@H]1CN(C(=O)NC(C)C)CC[C@H]1CC(=O)O` in your answer.
**Result** 90

**Query** Given the compound CCC1CCCCN1C(=O)c1ccc(C)c(OC)c1 (stereo not shown) , write its reported viability at 28.5 h, 10 µM.
**Result** 103

**Query** Tell me its viability at 28.5 h, 10 µM given `Nc1ncc(-c2ccsc2)nc1NCC1CCOCC1` as the entry.
**Result** 102

**Query** Let me know recorded viability at 28.5 h, 10 µM for `CN(C)CCCNC(=O)c1cnc2cc(Cl)ccc2c1O` , thanks.
**Result** 94.4

**Query** Check the records and state viability at 28.5 h, 10 µM for CCC1CCCCN1C(=O)c1ccc(C)s1 (stereo not shown)
**Result** 96.6

**Query** Recall and state the measured viability at 28.5 h, 10 µM for COc1ccc(N2C(=O)CC(NNC(N)=O)C2=O)cc1 (stereo not shown) .
**Result** 92.1

**Query** Give a short answer stating reported viability at 28.5 h, 10 µM for O=C(C1CCCN(C2CCN(Cc3ccccc3)CC2)C1)N1CCN(c2ccccc2)CC1 (stereo not shown) [CBK265440G] .
**Result** 113

**Query** Kindly indicate its recorded viability at 28.5 h, 10 µM. Item: `O=C(Nc1ccncc1)c1snnc1-c1ccccc1`
**Result** 81.4

The reported measurements were obtained from paper PMC12040169.
